Values from paper PMC12346198

# run-description: Single-dose IV and PO pharmacokinetics in mice
# Format: in vivo, male C57BL/6 mice
# condition-context: IV, 2 mg/kg (valine conjugates 2 mg/kg EQV); non-compartmental analysis
measured-metric: IV: Clobs, Geo Mean (L/h)
Reply with just the number (in L/h).

These recorded examples may help you get a feel for the data.
> print(dat)
                                   compound  numeric.readout
1  CC(C)[C@H](N)C(=O)Oc1ccc(Cl)cc1C(=O)Nc1ccc(C(F)(F)F)cc1Cl             0.01
2  CC(C)[C@H](N)C(=O)Oc1ccc(Cl)cc1C(=O)Nc1ccc([N+](=O)[O-])cc1Cl [valine–niclosamide]             0.02
3     O=C(Nc1ccc(C(F)(F)F)cc1)c1cc(Cl)ccc1O             0.03

What IV: Clobs, Geo Mean value was documented for this compound, "CC(C)[C@H](N)C(=O)Oc1ccc(Cl)cc1C(=O)Nc1ccc(C(F)(F)F)cc1" ?
0.004

What IV: Clobs, Geo Mean value was documented for this compound, "O=C(Nc1ccc(C(F)(F)F)cc1Cl)c1cc(Cl)ccc1O" ?
0.04
